outcome_measure: melting point

Q: Specify measured melting point for `Nc1ccccc1S(=O)(=O)C(F)(F)F` .
Result: 47 to 49 °C

Q: Specify measured melting point for `CC(C)(C)C(=O)N1CCc2cc(C(=O)O)ccc21` .
Result: 195 to 197 °C

Q: Specify measured melting point for `CNc1nc(CC(C)=O)ns1` .
Result: 298 to 300 °C

Q: Specify measured melting point for `O=C(O)CCNc1nccs1` .
Result: 171 to 173 °C

Q: Specify measured melting point for N#CC1COCCN1 (stereo unspecified) .
Result: 76 to 78 °C

Q: Specify measured melting point for `O=Cc1ccc(Br)c2cccnc12` .
Result: 119 to 121 °C

Q: Specify measured melting point for `Cc1cc(Cl)nc(-c2cccc([N+](=O)[O-])c2)n1` .
Result: 147 to 149 °C

Q: Specify measured melting point for CC(C)CNC(=O)NC(=O)C(C)Cl (stereo unspecified) .
Result: 85 to 87 °C

Q: Specify measured melting point for `Cc1nc(-c2ccsc2)ccc1C(=O)O` .
Result: 174 to 176 °C

Q: Specify measured melting point for CC(NC(=O)CCl)C1CC2CCC1C2 (stereo unspecified) .
Result: 87 to 89 °C

Q: Specify measured melting point for `Cc1nc(C)n(-c2ccc(C(=O)O)cc2)n1` .
Result: 289 to 291 °C

Q: Specify measured melting point for `COc1cc2c(c(OC)c1)C(=O)C(=O)N2` .
Result: 289 to 291 °C

Q: Specify measured melting point for `Nc1cc([N+](=O)[O-])ccc1Sc1cccs1` .
Result: 94 to 96 °C

Q: Specify measured melting point for `Nc1ccc(-n2cc[nH]c2=O)cc1` .
Result: 217 to 219 °C

Q: Specify measured melting point for `NC(=O)c1cc(Oc2cccc(O)c2)ccn1` .
Result: 124 to 126 °C

Q: Specify measured melting point for `Cc1c(Cl)cccc1NC(=O)CCl` .
Result: 71 to 74 °C

Q: Specify measured melting point for `O=C(CCCl)Nc1ccc(N2CCOCC2)cc1` .
Result: 192 to 194 °C

Q: Specify measured melting point for `NC(=O)c1ccn(-c2ccc(N)cc2)n1` .
Result: 230 to 232 °C

Q: Specify measured melting point for `CC(C)N1C(=O)NC(=O)C1=O` .
Result: 92 to 96 °C

Q: Specify measured melting point for `N#Cc1cc(F)cc(F)c1[N+](=O)[O-]` .
Result: 95 to 97 °C

Q: Specify measured melting point for `COc1ccccc1-n1c(C)nnc1SCC(=O)O` .
Result: 169 to 171 °C
